Target Of Assay: Serine/threonine-protein phosphatase PP1-alpha catalytic subunit (Homo sapiens)
Test Method Notes: inhibition of human PP1 catalytic subunit – biochemical, fluorescence, OMFP substrate, single point, counter-screen for PP5 inhibitor project, primary screen (AID 2235)
Condition Parameters: purified PP1alpha, at 6.7 µM, active compounds read high
The whole screen tested about 320,000 compounds, of which about 2,800 (0.88%) were called active. Shown is part of a subset that was picked to be rich in actives.
Reported inhibition is given for each of the following molecules.
Reported Metric: inhibition (%)

Molecule	Reported Metric	Number
CCOC(=O)Cn1c(-c2cccnc2Cl)nc2ccccc21	inhibition	2.18
CCOC(=O)COn1c(=O)c(-c2ccc(OCC)cc2)[n+]([O-])c2ccccc21	inhibition	-1.29
Cc1nn(-c2ccccc2)c2[nH]c(C(F)(F)F)cc(=O)c12	inhibition	2.68
COc1ccc(-c2nnc(SCC(=O)Nc3cccnc3Cl)n2C)cc1	inhibition	-4.29
CCCCCCCCCCOC(=O)Cn1c(COc2cccc(OC)c2)[n+](C)c2ccccc21	inhibition	33
COc1ccc(OC(C)C(=O)Nc2cccnc2)cc1 (stereo unspecified)	inhibition	3
